tested on: P-gp; test: Apparent permeability from apical to basolateral side of P-gp knockdown human Caco2 cells at 10 uM up to 120 mins by reverse-phase liquid chromatography with triple-quadrupole tandem mass spectrometry analysis; type: ADME, cell-based, Caco-2
Kindly state Papp A→B at 2 h, 10 µM for each of the entries shown.
Answer in ×10⁻⁶ cm/s, number only, no unit symbol.

Sample "C[C@]12CC[C@@H]3c4ccc(OS(=O)(=O)O)cc4CC[C@H]3[C@@H]1CCC2=O" — what was its Papp A→B at 2 h, 10 µM?
0.52

Queued: "C[C@H]1O[C@@H](O[C@H]2[C@@H](O)C[C@H](O[C@H]3[C@@H](O)C[C@H](O[C@H]4CC[C@@]5(C)[C@H](CC[C@@H]6[C@@H]5C[C@@H](O)[C@]5(C)[C@@H](C7=CC(=O)OC7)CC[C@]65O)C4)O[C@@H]3C)O[C@@H]2C)C[C@H](O)[C@@H]1O"
1.59

====

test system: BCRP; assay: Apparent permeability from apical to basolateral side of BCRP knockdown human Caco2 cells at 10 uM up to 120 mins by reverse-phase liquid chromatography with triple-quadrupole tandem mass spectrometry analysis; assay type: ADME, cell-based, Caco-2
REPORTED_PROPERTY: Papp A→B at 2 h, 10 µM (×10⁻⁶ cm/s)
Answer in ×10⁻⁶ cm/s, number only, no unit symbol.

Sample C[C@H]1O[C@@H](O[C@H]2[C@@H](O)C[C@H](O[C@H]3[C@@H](O)C[C@H](O[C@H]4CC[C@@]5(C)[C@H](CC[C@@H]6[C@@H]5C[C@@H](O)[C@]5(C)[C@@H](C7=CC(=O)OC7)CC[C@]65O)C4)O[C@@H]3C)O[C@@H]2C)C[C@H](O)[C@@H]1O [DIGOXIN] — what was its Papp A→B at 2 h, 10 µM?
0.54

Queued: C[C@]12CC[C@@H]3c4ccc(OS(=O)(=O)O)cc4CC[C@H]3[C@@H]1CCC2=O [ESTRONE SULFURIC ACID]
1.03

====

Kindly state Papp A→B at 2 h, 10 µM for each of the entries shown.
assay: Apparent permeability from apical to basolateral side of vector transfected human Caco2 cells at 10 uM up to 120 mins by reverse-phase liquid chromatography with triple-quadrupole tandem mass spectrometry analysis; assay type: ADME, cell-based; details: Caco-2
Answer in ×10⁻⁶ cm/s, number only, no unit symbol.

Sample O=C1OC(c2ccc(O)c(S(=O)(=O)[O-])c2)(c2ccc(O)c(S(=O)(=O)[O-])c2)c2c(Br)c(Br)c(Br)c(Br)c21.[Na+].[Na+] [SULFOBROMOPHTHALEIN SODIUM] — what was its Papp A→B at 2 h, 10 µM?
0.03

Queued: "C[C@H]1O[C@@H](O[C@H]2[C@@H](O)C[C@H](O[C@H]3[C@@H](O)C[C@H](O[C@H]4CC[C@@]5(C)[C@H](CC[C@@H]6[C@@H]5C[C@@H](O)[C@]5(C)[C@@H](C7=CC(=O)OC7)CC[C@]65O)C4)O[C@@H]3C)O[C@@H]2C)C[C@H](O)[C@@H]1O"
1.14

Queued: "C[C@]12CC[C@@H]3c4ccc(OS(=O)(=O)O)cc4CC[C@H]3[C@@H]1CCC2=O"
0.57

====

system: MRP2; assay: Efflux ratio of permeability from […] side in MRP2 knockdown human Caco2 cells at 10 uM up to 120 mins by reverse-phase liquid chromatography with triple-quadrupole tandem mass spectrometry analysis; format: ADME, cell-based, Caco-2
REPORTED_PROPERTY: efflux ratio at 2 h, 10 µM
Could you keep your reply to the number by itself?

Sample "C[C@]12CC[C@@H]3c4ccc(OS(=O)(=O)O)cc4CC[C@H]3[C@@H]1CCC2=O" — what was its efflux ratio at 2 h, 10 µM?
62.2

Queued: O=C1OC(c2ccc(O)c(S(=O)(=O)[O-])c2)(c2ccc(O)c(S(=O)(=O)[O-])c2)c2c(Br)c(Br)c(Br)c(Br)c21.[Na+].[Na+] [SULFOBROMOPHTHALEIN SODIUM]
2.6

Queued: "C[C@H]1O[C@@H](O[C@H]2[C@@H](O)C[C@H](O[C@H]3[C@@H](O)C[C@H](O[C@H]4CC[C@@]5(C)[C@H](CC[C@@H]6[C@@H]5C[C@@H](O)[C@]5(C)[C@@H](C7=CC(=O)OC7)CC[C@]65O)C4)O[C@@H]3C)O[C@@H]2C)C[C@H](O)[C@@H]1O"
21.4
